Experiment: Buffer/octanol partition coefficient, log D of the compound at pH 7.4 by shake flask method
Type: physicochemical
TEST_READOUT: logD

COMPOUND: CC(Nc1ccc(F)cc1)c1cc(C(=O)NCCN(C)C)cn2c(=O)cc(N3CCOCC3)nc12 (racemic)
VALUE_OBSERVED: 1.8
//
COMPOUND: CC(Nc1cccc(Cl)c1F)c1cc(C(=O)NCCN(C)C)cn2c(=O)cc(N3CCOCC3)nc12 (single isomer, unassigned; (-))
VALUE_OBSERVED: 2.7
//
COMPOUND: CC(Nc1ccc(F)c(F)c1)c1cc(C(=O)N(C)C)cn2c(=O)cc(N3CCOCC3)nc12 (single isomer, unassigned; (-))
VALUE_OBSERVED: 2.7
//
COMPOUND: CC(Nc1cc(F)cc(F)c1F)c1cc(C(=O)N(C)C)cn2c(=O)cc(N3CCOCC3)nc12 (single isomer, unassigned; (-))
VALUE_OBSERVED: 2.9
//
COMPOUND: C[C@@H](Nc1cc(F)cc(F)c1)c1cc(C(=O)N(C)C)cn2c(=O)cc(N3CCOCC3)nc12
VALUE_OBSERVED: 3

A: CC(Nc1ccccc1)c1cc(C(=O)NCCN(C)C)cn2c(=O)cc(N3CCOCC3)nc12 (single isomer, unassigned; (-))
B: CC(Nc1cc(F)cc(Cl)c1)c1cc(C(=O)N(C)C)cn2c(=O)cc(N3CCOCC3)nc12 (single isomer, unassigned; (-))
Query: Which of the two gives a bigger number for logD: A or B ? State the label of the item chosen.
Response: B

* * *

Assay: Half life in mouse plasma at 5 umol/kg, iv and 30 umol/kg, po
Type: ADME, organism-based
TEST_READOUT: half-life (h)
# number only, unit h dropped from output

Query: Quick check: half-life of CC(Nc1ccc(F)cc1)c1cc(C(=O)N(C)C)cn2c(=O)cc(N3CCOCC3)nc12 (single isomer, unassigned; (-)) ?
Response: 1.1

* * *

Biological target: Phosphatidylinositol 4,5-bisphosphate 3-kinase catalytic subunit alpha isoform (Homo sapiens, UniProt P42336)
Sequence (P42336 whole entry, canonical isoform): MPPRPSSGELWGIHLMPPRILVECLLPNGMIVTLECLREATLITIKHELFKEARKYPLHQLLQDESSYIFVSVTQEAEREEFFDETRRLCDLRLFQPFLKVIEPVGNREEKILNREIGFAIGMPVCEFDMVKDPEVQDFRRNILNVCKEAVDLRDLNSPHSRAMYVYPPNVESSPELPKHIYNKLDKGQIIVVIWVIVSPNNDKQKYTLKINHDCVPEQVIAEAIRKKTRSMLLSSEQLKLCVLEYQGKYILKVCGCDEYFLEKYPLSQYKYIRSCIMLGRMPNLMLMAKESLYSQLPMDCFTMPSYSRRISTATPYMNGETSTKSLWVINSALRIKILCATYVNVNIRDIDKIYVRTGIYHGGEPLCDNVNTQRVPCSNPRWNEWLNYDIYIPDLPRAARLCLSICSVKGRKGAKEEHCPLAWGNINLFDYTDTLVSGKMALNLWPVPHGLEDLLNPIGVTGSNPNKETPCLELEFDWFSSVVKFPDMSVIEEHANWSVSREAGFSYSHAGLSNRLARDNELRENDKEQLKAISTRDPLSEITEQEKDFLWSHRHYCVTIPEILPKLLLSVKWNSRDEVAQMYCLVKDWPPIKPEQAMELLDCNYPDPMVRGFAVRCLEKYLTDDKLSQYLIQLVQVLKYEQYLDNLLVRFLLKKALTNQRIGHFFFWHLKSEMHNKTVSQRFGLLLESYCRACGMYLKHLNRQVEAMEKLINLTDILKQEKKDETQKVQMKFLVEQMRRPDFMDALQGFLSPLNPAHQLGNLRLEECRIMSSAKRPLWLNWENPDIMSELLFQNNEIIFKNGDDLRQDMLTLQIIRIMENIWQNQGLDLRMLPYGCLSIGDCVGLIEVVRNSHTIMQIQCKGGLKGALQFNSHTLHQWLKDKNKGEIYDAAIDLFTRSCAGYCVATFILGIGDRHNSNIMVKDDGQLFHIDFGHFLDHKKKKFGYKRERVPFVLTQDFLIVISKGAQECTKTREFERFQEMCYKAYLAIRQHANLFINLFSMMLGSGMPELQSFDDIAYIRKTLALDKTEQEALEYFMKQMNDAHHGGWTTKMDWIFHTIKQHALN
Assay: Inhibition of human recombinant PI3Kalpha assessed as depletion of ATP substrate by Ultra Glo luciferase assay
pIC50: −log10 of the molar value.
TEST_READOUT: pIC50

Example compounds with recorded pIC50:
COMPOUND: CC(Nc1ccc(F)c(F)c1)c1cc(C(=O)N(C)C)cn2c(=O)cc(N3CCOCC3)nc12 (single isomer, unassigned; (-))
pIC50: 6.47
--
COMPOUND: CC(Nc1ccccc1)c1cc(C(=O)N(C)C)cn2c(=O)cc(N3CCOCC3)nc12 (single isomer, unassigned; (+))
pIC50: 6.25
--
COMPOUND: C[C@@H](Nc1cc(F)cc(F)c1)c1cc(C(=O)N(C)C)cn2c(=O)cc(N3CCOCC3)nc12
pIC50: 7.12

A: CC(Nc1cccc(Cl)c1F)c1cc(C(=O)NCCN(C)C)cn2c(=O)cc(N3CCOCC3)nc12 (single isomer, unassigned; (-))
B: CC(Nc1ccccc1)c1cc(C(=O)NCCN(C)C)cn2c(=O)cc(N3CCOCC3)nc12 (single isomer, unassigned; (-))
C: CC(Nc1ccc(F)cc1)c1cc(C(=O)N(C)C)cn2c(=O)cc(N3CCOCC3)nc12 (single isomer, unassigned; (-))
Query: Provide the items ranked by increasing pIC50. Response format: the labels, sorted as the prompt asks.
Response: C, B, A
(C: 5.89, B: 6.43, A: 7.04)
